test system: MDA-MB-435; test: NCI tumour cell line growth inhibition, 48 h

# COMPOUND, TGI
records = [
    ("CCCCCC(=O)OC[n+]1cccc(-c2c(COC(=O)NC(C)C)c(COC(=O)NC(C)C)c3n2CCC3)c1", "> 100 µM"),
    ("CC(C)=CCC[C@@H](C)C1=C(N)C(O)=C(C)C(=O)C1=O", "> 75 µM"),
    ("NS(=O)(=O)c1c(O)c2ccccc2oc1=O", "> 100 µM"),
    ("CCN1CCN(CC(=O)Nc2nc3ccc(NCc4ccc(Br)cc4)cc3s2)CC1", "3.23 µM"),
    ("Nc1cc(C(F)(F)F)c(-c2nc(N3CCOCC3)nc(N3CCOCC3)n2)cn1", "5.15 µM"),
    ("O=C1[C@H](Cc2ccc(O)cc2)N2C(=O)CCN(C(=O)NCc3ccccc3)[C@H]2CN1Cc1cccc2ccccc12", "21.4 µM"),
    ("COC(=O)C1(CCCCl)CCCN1C(=O)OC(C)(C)C (stereo not given)", "> 100 µM"),
    ("CCOC(=O)c1cn(-c2ccc([N+](=O)[O-])cc2)c(=S)n2c1nc1ccccc12", "> 100 µM"),
    ("O[C@@H]1[C@H](OC2c3ccccc3-c3ccccc32)[C@H](OCc2ccccc2)[C@@H]2OC[C@H]1O2", "> 100 µM"),
    ("COc1cc(CCN)c(OC)c(OC)c1", "61.1 µM"),
]
